biological target: human V2 receptor (Homo sapiens, UniProt P30518); experiment: Cellular in vitro assay for determining vasopressin receptor activity, V2 receptor cell line (CRE-luciferase); conditions: CHO cell line transfected with the human V2 receptor; agonist [Arg8]-vasopressin at EC50 concentration; read-out: IC50 hV2
Sequence (P30518 whole entry): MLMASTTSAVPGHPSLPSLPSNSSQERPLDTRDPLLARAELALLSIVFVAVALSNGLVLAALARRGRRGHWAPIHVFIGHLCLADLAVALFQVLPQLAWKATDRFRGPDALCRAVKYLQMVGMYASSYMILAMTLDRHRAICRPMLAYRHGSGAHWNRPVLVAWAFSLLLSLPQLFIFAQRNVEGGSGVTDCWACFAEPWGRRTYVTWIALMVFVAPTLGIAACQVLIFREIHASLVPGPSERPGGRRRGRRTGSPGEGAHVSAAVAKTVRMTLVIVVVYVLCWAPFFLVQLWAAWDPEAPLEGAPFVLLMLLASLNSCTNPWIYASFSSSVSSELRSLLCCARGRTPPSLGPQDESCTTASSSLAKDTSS
measurement.kind: IC50 (nM)

Here is how some molecules turned out for IC50.
molecule	IC50 (nM)
O=c1n(Cc2nc(N3CC(F)(F)C3)n(-c3ccccc3Cl)n2)nc(-c2ccc(Cl)cc2)n1C[C@H](O)C(F)(F)F [Example 81]	17.7
COCCN(C)c1nc(Cn2nc(-c3ccc(Cl)cc3)n(C[C@H](O)C(F)(F)F)c2=O)nn1-c1ccccc1Cl [Example 85]	9.76
CC(C)(CNc1nc(Cn2nc(-c3ccc(Cl)cc3)n(C[C@H](O)C(F)(F)F)c2=O)nn1CCC(F)(F)F)NS(C)(=O)=O [Example 102]	123
O=C1CCC(CNc2nc(Cn3nc(-c4ccc(Cl)cc4)n(C[C@H](O)C(F)(F)F)c3=O)nn2-c2ccccc2Cl)N1 (mixture of isomers) [Example 63]	5.8

1 = CC(C)(C)OC(=O)N1CCCC(O)(CNc2nc(Cn3nc(-c4ccc(Cl)cc4)n(C[C@H](O)C(F)(F)F)c3=O)nn2-c2ccccc2Cl)CC1 (mixture of isomers) [Example 19]
2 = O=c1n(Cc2nc(N3CCOC(C(F)(F)F)C3)n(CCC(F)(F)F)n2)nc(-c2ccc(Cl)cc2)n1C[C@H](O)C(F)(F)F (single isomer, unassigned) [Example 104]
[ask] Which numeric IC50 is bigger, that of 1 or that of 2 ? API: response body contains the label of the selected item.
[reply] 2
(2: 365 nM, 1: 38 nM)

* * *

biological target: human V1a receptor (Homo sapiens, UniProt P37288); experiment: Cellular in vitro assay for determining vasopressin receptor activity, V1a receptor cell line (photoprotein luminescence); details: CHO cell line transfected with the human V1a receptor; agonist [Arg8]-vasopressin at EC50 concentration; read-out: IC50 hV1a
Sequence (P37288 whole entry): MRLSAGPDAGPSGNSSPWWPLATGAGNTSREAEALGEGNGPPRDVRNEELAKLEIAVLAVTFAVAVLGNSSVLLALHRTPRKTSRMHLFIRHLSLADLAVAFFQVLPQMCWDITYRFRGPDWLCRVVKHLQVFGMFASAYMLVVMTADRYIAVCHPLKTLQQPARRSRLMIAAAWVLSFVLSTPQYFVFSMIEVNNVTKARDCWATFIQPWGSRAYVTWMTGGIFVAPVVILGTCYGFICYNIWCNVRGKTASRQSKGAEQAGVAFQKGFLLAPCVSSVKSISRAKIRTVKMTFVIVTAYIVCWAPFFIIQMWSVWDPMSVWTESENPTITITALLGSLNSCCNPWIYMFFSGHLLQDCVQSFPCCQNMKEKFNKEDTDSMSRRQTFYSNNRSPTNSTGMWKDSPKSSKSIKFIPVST
measurement.kind: IC50 (nM)

Worked set:
molecule	result
NS(=O)(=O)CCNc1nc(Cn2nc(-c3ccc(Cl)cc3)n(C[C@H](O)C(F)(F)F)c2=O)nn1-c1ccccc1Cl	0.34
CC1(C)CN(c2nc(Cn3nc(-c4ccc(Cl)cc4)n(C[C@H](O)C(F)(F)F)c3=O)nn2-c2ccccc2Cl)CCN1	0.42
CC(C)(N)CNc1nc(Cn2nc(-c3ccc(Cl)cc3)n(C[C@H](O)C(F)(F)F)c2=O)nn1-c1ncccc1Cl	0.86
O=c1n(Cc2nc(N3CC(O)(C(F)(F)F)C3)n(-c3ccccc3Cl)n2)nc(-c2ccc(Cl)cc2)n1C[C@H](O)C(F)(F)F	0.82

I = O=c1n(Cc2nc(N3CCOC(C(F)(F)F)C3)n(CCC(F)(F)F)n2)nc(-c2ccc(Cl)cc2)n1C[C@H](O)C(F)(F)F (single isomer, unassigned) [Example 104]
II = O=C1NCCC1Nc1nc(Cn2nc(-c3ccc(Cl)cc3)n(C[C@H](O)C(F)(F)F)c2=O)nn1-c1ccccc1Cl (single isomer, unassigned) [Example 17]
[ask] API: POST /compare with I and II ; response names the item with higher IC50. Please identify the chosen entry by its label.
[reply] I

* * *

target: human V2 receptor (Homo sapiens); assay: Cellular in vitro assay for determining vasopressin receptor activity, V2 receptor cell line (CRE-luciferase); conditions: CHO cell line transfected with the human V2 receptor; agonist [Arg8]-vasopressin at EC50 concentration; read-out: IC50 hV2
pIC50: −log10 of the molar value.
measurement.kind: pIC50

The examples below pair each entry with its known result.
molecule	pIC50
COC(C)(C)CNc1nc(Cn2nc(-c3ccc(Cl)cc3)n(C[C@H](O)C(F)(F)F)c2=O)nn1-c1ccccc1Cl	8.32
O=C1CCC(Nc2nc(Cn3nc(-c4ccc(Cl)cc4)n(C[C@H](O)C(F)(F)F)c3=O)nn2-c2ccccc2Cl)CN1 (mixture of isomers) [Example 60]	8.27
O=c1n(Cc2nc(N3CCCC3)n(-c3cccc(Cl)c3)n2)nc(-c2ccc(Cl)cc2)n1C[C@H](O)C(F)(F)F	7.72

I = O=c1n(Cc2nc(NCCO)n(-c3cccc(F)c3)n2)nc(-c2ccc(Cl)cc2)n1C[C@H](O)C(F)(F)F
II = O=c1n(Cc2nc(N3CCOCC3)n(-c3ccccc3Cl)n2)nc(-c2ccc(Cl)cc2)n1C[C@H](O)C(F)(F)F
[ask] Please state the entry with greater pIC50 among I and II . Choose, then provide that item's label.
[reply] I

A = CC(C)(CF)CNc1nc(Cn2nc(-c3ccc(Cl)cc3)n(C[C@H](O)C(F)(F)F)c2=O)nn1-c1ccccc1Cl
B = CC1(O)CCN(c2nc(Cn3nc(-c4ccc(Cl)cc4)n(C[C@H](O)C(F)(F)F)c3=O)nn2-c2ccccc2Cl)C1 (single isomer, unassigned) [Example 31]
[ask] Identify the item whose pIC50 is the smaller number: A or B Mark your answer with the label of the selected entry.
[reply] B
(B: 8.08, A: 8.67)

P = NC(=O)C1CN(c2nc(Cn3nc(-c4ccc(Cl)cc4)n(C[C@H](O)C(F)(F)F)c3=O)nn2-c2ccccc2Cl)CCN1 (mixture of isomers)
Q = O=C1CC[C@@H](CNc2nc(Cn3nc(-c4ccc(Cl)cc4)n(C[C@H](O)C(F)(F)F)c3=O)nn2CCC(F)(F)F)N1
R = CC(C)(CNc1nc(Cn2nc(-c3ccc(Cl)cc3)n(C[C@H](O)C(F)(F)F)c2=O)nn1-c1ccccc1Cl)NS(C)(=O)=O
S = O=C1NCCC1Nc1nc(Cn2nc(-c3ccc(Cl)cc3)n(C[C@H](O)C(F)(F)F)c2=O)nn1-c1ccccc1Cl (mixture of isomers) [Example 16]
[ask] Sort entries by pIC50 from minimum to maximum value. Response format: the labels, sorted as the prompt asks.
[reply] Q, P, R, S
(Q: 6.41, P: 8.03, R: 8.66, S: 9.09)

* * *

molecular target: human V1a receptor (Homo sapiens, UniProt P37288); test: Cellular in vitro assay for determining vasopressin receptor activity, V1a receptor cell line (photoprotein luminescence); type: cell-based; details: CHO cell line transfected with the human V1a receptor; agonist [Arg8]-vasopressin at EC50 concentration; read-out: IC50 hV1a
pIC50: −log10 of the molar value.
measurement.kind: pIC50

Would you please look over these solved cases?
compound	result
O=c1n(Cc2nc(NCC3CS(=O)(=O)C3)n(-c3ccccc3Cl)n2)nc(-c2ccc(Cl)cc2)n1C[C@H](O)C(F)(F)F [Example 73]	8.95
NC(=O)[C@H]1CCN(c2nc(Cn3nc(-c4ccc(Cl)cc4)n(C[C@H](O)C(F)(F)F)c3=O)nn2-c2ccccc2Cl)C1 [Example 57]	9.13
CS(=O)(=O)NCCNc1nc(Cn2nc(-c3ccc(Cl)cc3)n(C[C@H](O)C(F)(F)F)c2=O)nn1-c1ccccc1Cl [Example 24]	9.40
O=c1n(Cc2nc(NCC3(O)CCC3)n(-c3ccccc3Cl)n2)nc(-c2ccc(Cl)cc2)n1C[C@H](O)C(F)(F)F [Example 52]	9.19
O=c1n(Cc2nc(N3CCC3)n(-c3cccc(F)c3)n2)nc(-c2ccc(Cl)cc2)n1C[C@H](O)C(F)(F)F [Example 121]	8.19

A = CN(CCO)c1nc(Cn2nc(-c3ccc(Cl)cc3)n(C[C@H](O)C(F)(F)F)c2=O)nn1-c1ccccc1Cl [Example 84]
B = O=c1n(Cc2nc(N3CCC(O)C3)n(-c3ccccc3Cl)n2)nc(-c2ccc(Cl)cc2)n1C[C@H](O)C(F)(F)F (mixture of isomers) [Example 43]
C = O=C1CN(c2nc(Cn3nc(-c4ccc(Cl)cc4)n(C[C@H](O)C(F)(F)F)c3=O)nn2-c2ccccc2F)CCN1 [Example 89]
[ask] Returns the items ordered by pIC50, from maximum to minimum. Give the labels in the order requested.
[reply] B, A, C

* * *

target: UniProt:P30518; assay: Cellular in vitro assay for determining vasopressin receptor activity, V2 receptor cell line (CRE-luciferase); details: CHO cell line transfected with the human V2 receptor; agonist [Arg8]-vasopressin at EC50 concentration; read-out: IC50 hV2
measurement.kind: IC50 (nM)

O=c1n(Cc2nc(NCC3(O)CCC3)n(-c3ccccc3Cl)n2)nc(-c2ccc(Cl)cc2)n1C[C@H](O)C(F)(F)F 0.83

I = CC(C)(N)CNc1nc(Cn2nc(-c3ccc(Cl)cc3)n(C[C@H](O)C(F)(F)F)c2=O)nn1-c1ncccc1Cl
II = CC(C)(N)CNc1nc(Cn2nc(-c3ccc(Cl)cc3)n(C[C@H](O)C(F)(F)F)c2=O)nn1-c1ccccc1Cl
III = NS(=O)(=O)CCNc1nc(Cn2nc(-c3ccc(Cl)cc3)n(C[C@H](O)C(F)(F)F)c2=O)nn1-c1ccccc1Cl
[ask] Please list these in order of increasing IC50. Thank you! Dear reader, please state the labels in the requested order.
[reply] III, II, I
(III: 1.16 nM, II: 24.8 nM, I: 727 nM)

The measurements presented in this section are drawn from patent US11331314B2.
